B1: POU domain, class 2, transcription factor 2, residues 200 to 269; numbered along this chain, P09086 (parent)
chain: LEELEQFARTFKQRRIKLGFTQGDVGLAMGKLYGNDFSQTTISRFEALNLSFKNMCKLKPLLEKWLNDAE

Variants of: B1
Assay: abundance fitness (aPCA) (normalised: wild type 0, dead -1); higher = more abundant; growth selection in yeast, the domain comes from the species named
Details: Homo sapiens
Response field class: enum, chosen by comparing abundance fitness against 0 (below -0.1), 1 (-0.1 to below -0.04), 2 (-0.04 or more)

Would you please look over these solved cases?
1) LEELEQFARTFKQRRIKLGFTQGDVGLAMGKLYGNDFSQTTISRFEALNLSFKNMCKLKPLLEKWLNDEE	2
2) LEELEQFARTFKQRRIKLGFTQGDVGLAMGKLYGNDFSQTTISRFEALNLSFKNMCKLKDLLEKWLNDAE	1
3) LEELEQFARTFKQRRIKLGFTPGDVGLAMGKLYGNDFSQTTISRFEALNLSFKNMCKLKPLLEKWLNDAE	1
4) LEELEQFARTFKQRRIKLGFTQGDVGLAMGKLYTNDFSQTTISRFEALNLSFKNMCKLKPLLEKWLNDAE	0
5) LEELEQFARTFKQRRIKLGFTQGDVGLAMGKLYGNDFSQTTLSRFEALNLSFKNMCKLKPLLEKWLNDAE	1

Exercise: Sort LEELEQFARTFKQRRIILGFTQGDVGLAMGKLYGNDFSQTTISRFEALNLSFKNMCKLKPLLEKWLNDAE into one of the categories.
Key: 1

Exercise: Now this one: LEELEQFARTFKQRRIKLGFTQGDVGLASGKLYGNDFSQTTISRFEALNLSFKNMCKLKPLLEKWLNDAE
Key: 0

Exercise: Now this one: LVELEQFARTFKQRRIKLGFTQGDVGLAMGKLYGNDFSQTTISRFEALNLSFKNMCKLKPLLEKWLNDAE
Key: 1

Exercise: Now this one: LEELEQFARTFKQRRIKLGFTQGDVGLAMGKLYGNDFSQTFISRFEALNLSFKNMCKLKPLLEKWLNDAE
Key: 0

Exercise: Now this one: LEELEQFARTFKQRRIKLGFTQGDVGLAMGKLYGNDFSQTTISRFEALNLSFKNMCKLKPLLEKWLNDAH
Key: 0

The reported measurements were obtained from the Human Domainome abundance scans (Beltran et al. 2025).
